Origin of the recorded values: ChEMBL document CHEMBL1149282

Exercise: state measured pEC50 for each of the molecules provided.
System: Hepatitis C virus
Experiment: Antiviral activity in Huh7 cells containing sub-genomic HCV subtype 1b replicon by RT-PCR
Assay type: functional, organism-based, Hepacivirus hominis
Conditions: genotype 1b, Huh-7
Give bare numbers, as −log10 of the molar value.

Recorded pEC50, per entry:
molecule_smiles=C=C[C@@H]1C[C@]1(NC(=O)[C@@H]1C[C@@H](Oc2cc(-c3ccccc3)nc3cc(OC)ccc23)CN1C(=O)[C@@H](NC(=O)OC1CCC1)C(C)(C)C)C(=O)O readout_name=pEC50 assay_result=6.02
molecule_smiles=C=C[C@@H]1C[C@]1(NC(=O)[C@@H]1C[C@@H](Oc2cc(-c3ccccc3)nc3cc(OC)ccc23)CN1C(=O)[C@@H](NC(=O)OC(C)(C)C)C(C)(C)C)C(=O)O readout_name=pEC50 assay_result=6.18

Dear colleague, could you send me pEC50 for each of the items below? Thanks.
1. C=C[C@@H]1C[C@]1(NC(=O)[C@@H]1C[C@@H](Oc2cc(-c3ccccc3)nc3cc(OC)ccc23)CN1C(=O)[C@@H](NC(=O)OC1CCCCC1)C(C)(C)C)C(=O)O
2. C=C[C@@H]1C[C@]1(NC(=O)[C@@H]1C[C@@H](Oc2cc(-c3ccccc3)nc3cc(OC)ccc23)CN1C(=O)[C@@H](NC(=O)NC1CCCCC1)C(C)(C)C)C(=O)O

1: 6.34; 2: 5.54

Provide pEC50 values for the following items, in order.
1. C=C[C@@H]1C[C@]1(NC(=O)[C@@H]1C[C@@H](Oc2cc(-c3ccccc3)nc3cc(OC)ccc23)CN1C(=O)[C@@H](NC(=O)NC1CCCC1)C(C)(C)C)C(=O)O
2. C=C[C@@H]1C[C@]1(NC(=O)[C@@H]1C[C@@H](Oc2cc(-c3ccccc3)nc3cc(OC)ccc23)CN1C(=O)[C@@H](NC(=O)NC(C)(C)C)C(C)(C)C)C(=O)O

6.04
5.91
